Value source: ChEMBL document CHEMBL1201862

# GI50 per entry
System: UACC-257
Assay: NCI tumour cell line growth inhibition, 48 h
Active and inactive are the calls of the source. Cut-off read from the data, not from the text of the source: active = GI50 up to about 1.1 µM and inactive = higher.
MEASURED_ENDPOINT: GI50

MOLECULE	STUDY_SYSTEM	MEASURED_ENDPOINT	READOUT_VALUE
CC(=O)C1=C(C)N(c2ccc(C)cc2)C2(O)C=CC(O)=C3C(=O)c4ccccc4C(=O)C312 (stereo not given)	UACC-257	GI50	10.6 µM (inactive)
COc1ccc(-c2cc(=O)c3c(O)c(OC)c(O)c(OC)c3o2)cc1OC	UACC-257	GI50	> 100 µM (inactive)
CCOC(=O)c1nnn(CCCCO)c1C(=O)OCC	UACC-257	GI50	> 100 µM (inactive)
COC(=O)/C=C1/CCC2[C@@H](C(=O)CC3[C@]2(C)CCC[C@@]3(C)C(=O)OC)C1C (stereo not given in full)	UACC-257	GI50	10.4 µM (inactive)
Cc1ccc(Oc2ccc([N+](=O)[O-])cc2[N+](=O)[O-])c(C)c1	UACC-257	GI50	26.1 µM (inactive)
C=CCOC(=O)N1c2ccc(O[Si](C)(C)C(C)(C)C)cc2[C@@]23O[C@@]24[C@@H]1C#C/C=C\C#C[C@]3(O)C(OC)(OC)C[C@@H]4C	UACC-257	GI50	19 µM (inactive)
COc1ccc2[nH]c3nnc(N)c-3nc2c1	UACC-257	GI50	17.1 µM (inactive)
COc1ccc(/C=C2\C[C@H]3[C@@H]4CCC5=C[C@@H](N6CCCC6)CC[C@]5(C)[C@H]4CC[C@]3(C)[C@H]2O)cc1	UACC-257	GI50	1.4 µM (inactive)
COC(=O)C1=C(c2ccc(OC)c(OC)c2)OC(c2ccc(OC)c(OC)c2)C1 (stereo not given)	UACC-257	GI50	36.3 µM (inactive)
O=C(CC1SC(Nc2ccccc2Cl)=NC1=O)Nc1ccc(Cl)cc1Cl (stereo not given)	UACC-257	GI50	> 100 µM (inactive)
C[C@H](OCc1ccccc1)C(=O)N1CCS(=O)(=O)N2CCC[C@H]2C1=O	UACC-257	GI50	> 100 µM (inactive)
CS(=O)(=O)N(CCC#N)c1ccc(C=O)cc1	UACC-257	GI50	> 100 µM (inactive)
C1=CC2CCC1CN2CCC1CNc2ccccc21 (stereo not given)	UACC-257	GI50	> 100 µM (inactive)
COc1ccccc1N1C(=O)/C(=C\c2cccc(Oc3ccccc3)c2)S(=O)(=O)C1c1ccccc1 (stereo not given)	UACC-257	GI50	21.7 µM (inactive)
CN(C)CCSCCO	UACC-257	GI50	> 100 µM (inactive)
COc1cc(CC2c3cc(OC)c(OC)cc3CCN2C)c(Oc2cc3c(cc2OC)-c2c(O)c(OC)cc4c2C(C3)N(C)CC4)cc1OC (stereo not given)	UACC-257	GI50	14.5 µM (inactive)
Nc1ncn(C2OC(COP(=O)(O)O)C(O)C2O)c(=O)n1 (stereo not given)	UACC-257	GI50	> 100 µM (inactive)
O=S(=O)(/N=S(/Nc1ccccc1)C(F)(F)Cl)c1ccccc1 (stereo not given)	UACC-257	GI50	> 100 µM (inactive)
CC[N+]1(C)CCC(O)(/C=C/c2ccccc2)C(C(=O)/C=C/c2ccccc2)C1 (stereo not given)	UACC-257	GI50	10.2 µM (inactive)
Cc1ccc2nc3cc(C)c(=O)cc-3sc2c1	UACC-257	GI50	54.6 µM (inactive)

----------
Test system: COLO 205
Test: NCI tumour cell line growth inhibition, 48 h
Activity calls are given as the source filed them. Rule as the data show it: active = GI50 up to about 1.1 µM and inactive = higher.
Outcomes: True = active, False = inactive

COMPOUND	CLASS_LABEL
COC(=O)C1C(C(=O)OC)C1(Br)CBr (stereo not given)	False
NN=C1/C(=C\c2ccccc2)CCC/C1=C/c1ccccc1	False
CCCC1=C(CC)C(C(=O)Nc2c(C)cccc2C)=NC(S)N1 (stereo not given)	False
COc1ccc(-c2cc(O)c3c(C)cc(C)nc3n2)cc1	False
CC1(C)CC(=O)C(CC2C(=O)CCCC2=O)C(=O)C1	False
COc1cc2ccc3c4cc(OC)c(OC(C)C)cc4c[n+](C)c3c2cc1OC	False
COC1O[C@@H]2CCN3C(=O)[C@@H](OC(=O)c4ccc([N+](=O)[O-])cc4)[C@H]1C23 (stereo not given in full)	False
O=C(/C=C/c1ccco1)c1cccc(C(=O)/C=C/c2ccco2)n1	False
COc1ccc(/C=C2\C[C@H]3[C@@H]4CCC5=C[C@@H](N6CCCC6)CC[C@]5(C)[C@H]4CC[C@]3(C)[C@H]2O)cc1	False
N#CC1=C(N2CCOCC2)CCC1	False
Cc1cc(S(=O)(=O)Nc2nc(N)n(C)n2)c(S)cc1Cl	False
N#Cc1nc(Sc2cnsn2)c(Sc2cnsn2)nc1C#N	False
O=S(=O)(N/C(=N\O)Nc1ccc(Cl)cc1)c1ccccc1	False
CC1(O)CCn2c(=O)c3cc4ccccc4cc3c(=O)n2C1O (stereo not given)	False
CC1(C)OC([C@H](O)CO)C([C@H]2NCCS2)O1 (stereo not given in full)	False
COc1cc([C@H]2Oc3c(OC)cc(CCCO)cc3[C@@H]2CO)ccc1O [DIHYDRODEHYDRODICONIFERY ALCOHOL]	False
CCCCCNC(=O)c1c(O)[nH]c(=S)[nH]c1=O	False
CCC(C)SC1SCC2C(=O)N(C)C3(CC3C)C(=O)OCC(NC(=O)c3nc4ccccc4cc3O)C(=O)NC(C)C(=O)N(C)C1C(=O)N(C)C1(CC1C)C(=O)OCC(NC(=O)c1nc3ccccc3cc1O)C(=O)NC(C)C(=O)N2C (stereo not given)	True
O=Cc1cc2c(cc1-c1c(C=O)ccc3c1OCO3)OCO2	False
Cn1cnc(S[C@H]2[C@H]3C(=O)C=C4S[C@H]5C[C@]42C2=C(N5)C(=O)c4[nH]cc5c4C2=[N+]3CC5)c1C[C@H](N)C(=O)O	False

----------
Tested on: OVCAR-5
Test: NCI tumour cell line growth inhibition, 48 h
The source made the active and inactive calls. No stated cut-off is given here; in the data, active = GI50 up to about 1.1 µM and inactive = higher.
# GI50 per entry

COMPOUND	GI50
Cc1c(NC(=O)CSC(=S)N2CCN(Cc3ccccc3)CC2)c(=O)n(-c2ccccc2)n1C	> 100 µM (inactive)
COc1cccc([C@@]2(O)c3c(ccc(O)c3OC)[C@H]2OC)c1OC	> 100 µM (inactive)
O=C(Nc1ccc(Nc2ccc3c(c2)C(=O)c2ccccc2C3=O)c2c1C(=O)c1ccccc1C2=O)c1ccccc1	> 100 µM (inactive)
C[C@@H]1CC[C@H]2C(C)(C)[C@H]3C[C@@]12CC[C@@]3(C)O [CEDROL]	> 100 µM (inactive)
Cc1cnc[nH]c1=O	> 100 µM (inactive)
COC(=O)C(=O)C(C(=O)C(=O)Nc1ccccc1C(N)=O)c1nc2ccc([N+](=O)[O-])cc2nc1O (stereo unspecified)	> 100 µM (inactive)
COC(=O)/C=C/N1CC1	4.76 µM (inactive)
COC(=O)C12CC3CC(C1)CC(C(=O)OC)(C3)C2	> 100 µM (inactive)
O=[N+]([O-])/C(C(Cl)=C(Cl)Cl)=C(\N1CCOCC1)n1nnc2ccccc21	21.1 µM (inactive)
CCCCCCCCCCCCCCCCCc1nnc(N)o1	> 100 µM (inactive)
N[C@H](C(=O)O)[C@@H]1CC(Br)=NO1	61.4 µM (inactive)
COC(=O)C1=C(c2ccc(OC)c(OC)c2)OC(c2ccc(OC)c(OC)c2)C1 (stereo unspecified)	32.6 µM (inactive)
C=C(C)/C=C/C(O)[C@](C)(O)[C@H]1[C@H](O)C[C@@]2(C)[C@@H]3CCc4c(cc(OC5OC(CO)C(O)C(O)C5O)c(O)c4C)C3(C)C(=O)C[C@]12C (stereo partly specified)	> 100 µM (inactive)
COC(=O)/C=C1/CCC2[C@@H](C(=O)CC3[C@]2(C)CCC[C@@]3(C)C(=O)OC)C1C (stereo partly specified)	20 µM (inactive)
O=C1Nc2ccccc2/C1=C/c1ccccc1	18.5 µM (inactive)
Cc1ccccc1C(C#N)/C(=N/NC(=O)C(=O)NN)C(=O)Nc1cccc(C(F)(F)F)c1 (stereo unspecified)	> 100 µM (inactive)
COc1ccnc2c1C(=O)c1nc3ccccc3c3ccnc-2c13	0.52 µM (active)
COC(=O)C1SC(SC)=NC12c1ccccc1Nc1ccccc12 (stereo unspecified)	54.8 µM (inactive)
O=C(Nc1nc2ccc([N+](=O)[O-])cc2[n+]([O-])n1)C(F)(F)F	41.8 µM (inactive)
COC12OC3CC4(C)C(=CC3OC(OC(C)C1O)C2O)CCC1C4CCC2(C)C(c3ccc(=O)oc3)CCC12O (stereo unspecified)	0.00132 µM (active)
CCCc1nn(C)c(CCC(=O)N(Cc2ccccc2)Cc2ccccc2)c1CC	> 100 µM (inactive)

----------
Test system: SF-539
Test: NCI tumour cell line growth inhibition, 48 h
Active and inactive are the calls of the source. No stated cut-off is given here; in the data, active = GI50 up to about 1.1 µM and inactive = higher.
# GI50 per entry

COMPOUND	GI50
OCC1OC(OCC(O)C(O)C(O)C(/C=N/Nc2ccccc2)=N/Nc2ccccc2)C(O)C(O)C1O (stereo not given)	79.3 µM (inactive)
O=S(=O)(/N=S(/Nc1ccccc1)C(F)(F)Cl)c1ccccc1 (stereo not given)	> 100 µM (inactive)
O=C(NCCN1CCOCC1)c1ccc2cc(C(=O)N3CC(CCl)c4ccc([N+](=O)[O-])cc43)[nH]c2c1 (stereo not given)	60.4 µM (inactive)
O=C1C(NCCN2CCOCC2)=C(Cl)C(=O)c2ncccc21	1.18 µM (inactive)
NC(=S)NS(=O)(=O)c1ccc(Cl)cc1Cl	> 100 µM (inactive)
